Reported IC80 (µg/ml) with constrains is given for each of the following binders.
target: HIV Env, isolate CNE58 (HIV); experiment: cell-based or functional assay
State just the number; it will be interpreted in µg/mL.

PGDM1400 (antibody, V domains shown) VH: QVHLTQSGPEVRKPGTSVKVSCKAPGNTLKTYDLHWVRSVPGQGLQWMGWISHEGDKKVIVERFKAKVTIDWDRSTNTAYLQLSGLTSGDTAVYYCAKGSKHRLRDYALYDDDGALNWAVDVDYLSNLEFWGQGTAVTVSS VL: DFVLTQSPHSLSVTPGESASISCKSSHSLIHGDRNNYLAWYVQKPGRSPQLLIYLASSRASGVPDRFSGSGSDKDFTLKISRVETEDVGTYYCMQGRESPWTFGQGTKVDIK; 0.01
ePGDM13 (antibody, V domains shown) VH: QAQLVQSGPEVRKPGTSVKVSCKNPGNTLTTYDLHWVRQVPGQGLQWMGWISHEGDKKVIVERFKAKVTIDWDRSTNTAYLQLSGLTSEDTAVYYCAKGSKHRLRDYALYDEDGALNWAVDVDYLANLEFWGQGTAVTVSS VL: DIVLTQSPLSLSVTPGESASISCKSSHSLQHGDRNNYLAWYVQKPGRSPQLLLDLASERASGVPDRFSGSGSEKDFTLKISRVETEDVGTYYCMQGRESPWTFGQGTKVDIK; 0.014
ePGDM5 (antibody, V domains shown) VH: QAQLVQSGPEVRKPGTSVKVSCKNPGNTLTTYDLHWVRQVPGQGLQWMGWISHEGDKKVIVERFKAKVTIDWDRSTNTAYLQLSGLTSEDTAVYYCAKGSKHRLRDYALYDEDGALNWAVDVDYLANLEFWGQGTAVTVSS VL: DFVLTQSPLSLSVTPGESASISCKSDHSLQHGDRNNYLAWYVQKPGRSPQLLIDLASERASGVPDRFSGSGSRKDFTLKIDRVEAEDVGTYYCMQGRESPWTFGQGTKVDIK; 0.015

// switching to the query binder
Lab note: ePGDM9 (antibody, V domains shown) VH: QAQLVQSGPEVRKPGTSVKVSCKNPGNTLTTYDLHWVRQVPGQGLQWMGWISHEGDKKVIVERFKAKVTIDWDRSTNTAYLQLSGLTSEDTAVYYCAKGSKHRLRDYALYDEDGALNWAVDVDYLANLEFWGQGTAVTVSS VL: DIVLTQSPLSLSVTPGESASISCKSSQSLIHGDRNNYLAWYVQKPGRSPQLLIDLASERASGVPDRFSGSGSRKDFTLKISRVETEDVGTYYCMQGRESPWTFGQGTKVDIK gave IC80 (µg/ml) with constrains of 0.008
